The reported numbers originate from paper PMC8050233.

Each record here notes measured remaining activity at 10 µM.
# target.under.test: human POR (Homo sapiens, UniProt A0A9L9PY49)
# Construct: full-length wild type in pET22b, expressed in E. coli BL21(DE3); bacterial membranes reconstituted in DLPC/DLPG liposomes without further purification, or used as microsomes
# Sequence (A0A9L9PY49 1-680): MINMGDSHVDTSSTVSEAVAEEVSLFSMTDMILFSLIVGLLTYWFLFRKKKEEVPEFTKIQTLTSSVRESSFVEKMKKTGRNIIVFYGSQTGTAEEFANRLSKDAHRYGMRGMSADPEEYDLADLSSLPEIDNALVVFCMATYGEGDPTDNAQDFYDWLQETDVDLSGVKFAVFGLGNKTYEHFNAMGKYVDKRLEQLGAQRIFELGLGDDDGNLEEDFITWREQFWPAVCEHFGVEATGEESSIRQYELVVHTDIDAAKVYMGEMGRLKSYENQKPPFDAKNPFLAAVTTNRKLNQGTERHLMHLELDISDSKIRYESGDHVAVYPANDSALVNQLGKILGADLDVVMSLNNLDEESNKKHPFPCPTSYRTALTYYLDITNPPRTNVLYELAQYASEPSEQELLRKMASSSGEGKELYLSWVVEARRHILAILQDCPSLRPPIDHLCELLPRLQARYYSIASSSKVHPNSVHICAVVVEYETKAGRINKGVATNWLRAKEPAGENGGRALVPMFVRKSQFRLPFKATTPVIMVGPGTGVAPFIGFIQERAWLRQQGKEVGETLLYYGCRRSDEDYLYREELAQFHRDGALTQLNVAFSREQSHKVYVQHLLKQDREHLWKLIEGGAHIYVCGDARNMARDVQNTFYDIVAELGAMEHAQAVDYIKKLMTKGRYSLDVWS
# assay.procedure: biochemical
# Design: POR proteoliposome reduction of cytochrome c, MTT (absorbance) or resazurin (fluorescence), normalized to DMSO control
# condition.parameters: read-out: % of control remaining, Cytochrome C=Resazurin; Liposomes=Liposomes; electron acceptor as given
Give a bare numeral; the unit % is implied.

Study these solved cases before continuing.
compound="CC(=O)CC(c1ccccc1)c1c(O)c2ccccc2oc1=O (stereo not drawn)" outcome_measure="remaining activity at 10 µM" measured_value=96.2
compound=CN/C(=N\CCSCc1nc[nH]c1C)NC#N outcome_measure="remaining activity at 10 µM" measured_value=107
compound=CO[C@H]1/C=C/O[C@@]2(C)Oc3c(C)c(O)c4c(O)c(c(/C=N/N5CCN(C)CC5)c(O)c4c3C2=O)NC(=O)/C(C)=C\C=C\[C@H](C)[C@H](O)[C@@H](C)[C@@H](O)[C@@H](C)[C@H](OC(C)=O)[C@@H]1C outcome_measure="remaining activity at 10 µM" measured_value=132
compound=CC(C)c1nc(CN(C)C(=O)N[C@H](C(=O)N[C@@H](Cc2ccccc2)C[C@H](O)[C@H](Cc2ccccc2)NC(=O)OCc2cncs2)C(C)C)cs1 outcome_measure="remaining activity at 10 µM" measured_value=96.9

Problem: Identify the reported remaining activity at 10 µM for the following entry. CO[C@@]12[C@H](COC(N)=O)C3=C(C(=O)C(C)=C(N)C3=O)N1C[C@@H]1N[C@@H]12
Result: 53.7

Problem: Give the value of remaining activity at 10 µM reported for the following: CCCCc1oc2ccccc2c1C(=O)c1cc(I)c(OCCN(CC)CC)c(I)c1
Result: 102

###

# assay.procedure: in vitro
# condition.parameters: human, nci-h295r cells
outcome.measure: viability at 10 µM (%)
Write the answer as a number in %, unit excluded.

Problem: Retrieve viability at 10 µM measured for O=P1(N(CCCl)CCCl)NCCCO1 (centres unmarked) [cyclophosphamide] and print it.
Result: 87.9

Problem: Please report viability at 10 µM for the following compound: N#C[C@@H](O[C@@H]1O[C@H](CO)[C@@H](O)[C@H](O)[C@H]1O)c1ccc(O)cc1
Result: 93.6

###

# target.under.test: human POR (Homo sapiens, UniProt A0A9L9PY49)
# Construct: full-length wild type in pET22b, expressed in E. coli BL21(DE3); bacterial membranes reconstituted in DLPC/DLPG liposomes without further purification, or used as microsomes
# Sequence (A0A9L9PY49 1-680): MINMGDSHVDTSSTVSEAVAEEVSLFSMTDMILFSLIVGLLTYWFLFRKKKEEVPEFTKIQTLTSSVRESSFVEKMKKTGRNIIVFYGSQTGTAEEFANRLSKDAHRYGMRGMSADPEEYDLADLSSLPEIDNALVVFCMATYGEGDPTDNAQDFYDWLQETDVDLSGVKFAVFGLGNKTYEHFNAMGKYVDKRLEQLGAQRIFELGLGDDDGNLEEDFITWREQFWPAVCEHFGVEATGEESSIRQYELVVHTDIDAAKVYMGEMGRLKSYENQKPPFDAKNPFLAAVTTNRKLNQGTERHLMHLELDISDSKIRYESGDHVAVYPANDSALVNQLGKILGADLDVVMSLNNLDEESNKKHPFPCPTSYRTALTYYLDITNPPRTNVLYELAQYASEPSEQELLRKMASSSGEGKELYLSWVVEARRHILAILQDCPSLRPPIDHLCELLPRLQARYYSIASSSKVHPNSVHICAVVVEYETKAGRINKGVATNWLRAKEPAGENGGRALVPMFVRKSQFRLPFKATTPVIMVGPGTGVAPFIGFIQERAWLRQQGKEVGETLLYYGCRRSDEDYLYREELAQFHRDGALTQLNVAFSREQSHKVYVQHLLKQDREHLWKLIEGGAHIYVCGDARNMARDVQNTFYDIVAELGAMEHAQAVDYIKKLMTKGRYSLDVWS
# assay.procedure: biochemical
# Parameters: POR proteoliposome reduction of cytochrome c, MTT (absorbance) or resazurin (fluorescence), normalized to DMSO control
# condition.parameters: read-out: % of control remaining, Cytochrome C=Resazurin; Liposomes=Liposomes; electron acceptor as given
outcome.measure: remaining activity at 100 µM (%)
Write the value in % as a bare number.

Problem: Read off the recorded remaining activity at 100 µM for CN/C(=N\CCSCc1nc[nH]c1C)NC#N
Result: 112

Problem: Given the compound CO[C@H]1/C=C/O[C@@]2(C)Oc3c(C)c(O)c4c(O)c(c(/C=N/N5CCN(C)CC5)c(O)c4c3C2=O)NC(=O)/C(C)=C\C=C\[C@H](C)[C@H](O)[C@@H](C)[C@@H](O)[C@@H](C)[C@H](OC(C)=O)[C@@H]1C , write its reported remaining activity at 100 µM.
Result: 312

Problem: Look up remaining activity at 100 µM of CC(C)c1nc(CN(C)C(=O)N[C@H](C(=O)N[C@@H](Cc2ccccc2)C[C@H](O)[C@H](Cc2ccccc2)NC(=O)OCc2cncs2)C(C)C)cs1 and report it.
Result: 95.9

Problem: Output remaining activity at 100 µM of CCCCc1oc2ccccc2c1C(=O)c1cc(I)c(OCCN(CC)CC)c(I)c1
Result: 102

###

# target.under.test: SbPOR2b (Sorghum bicolor)
# Construct: gene CPR; full-length, expressed in E. coli NiCo21(DE3) from pET52b, purified on 2',5'-ADP Sepharose and Q-sepharose, in DLPC/DLPG proteoliposomes; mutant in lipid nanodiscs
# Sequence (C5YJG8 whole entry): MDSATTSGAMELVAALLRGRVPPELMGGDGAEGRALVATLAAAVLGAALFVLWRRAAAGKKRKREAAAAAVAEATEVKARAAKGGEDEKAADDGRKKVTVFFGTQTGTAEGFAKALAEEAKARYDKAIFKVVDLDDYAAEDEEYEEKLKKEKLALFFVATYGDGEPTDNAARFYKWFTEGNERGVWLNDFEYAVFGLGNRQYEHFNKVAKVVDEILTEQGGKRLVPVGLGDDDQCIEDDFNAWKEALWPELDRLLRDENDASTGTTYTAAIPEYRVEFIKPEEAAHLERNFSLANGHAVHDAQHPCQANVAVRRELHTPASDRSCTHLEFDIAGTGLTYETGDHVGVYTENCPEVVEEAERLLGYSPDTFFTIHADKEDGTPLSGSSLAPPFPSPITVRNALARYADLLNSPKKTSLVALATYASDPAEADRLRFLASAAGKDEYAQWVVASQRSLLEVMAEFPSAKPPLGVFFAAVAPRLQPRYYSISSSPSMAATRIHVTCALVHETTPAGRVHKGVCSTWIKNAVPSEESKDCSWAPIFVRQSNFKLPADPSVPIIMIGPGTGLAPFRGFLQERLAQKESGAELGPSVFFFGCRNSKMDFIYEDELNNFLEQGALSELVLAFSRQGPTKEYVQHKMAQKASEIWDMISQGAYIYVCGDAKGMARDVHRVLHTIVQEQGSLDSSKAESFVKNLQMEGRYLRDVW
# assay.procedure: cytochrome c reduction, absorbance […] nm, Hill fit
# Format: biochemical
outcome.measure: IC50 (µM)
Report only the number, with the unit µM understood.

Problem: Tell me its IC50 given O=P1(N(CCCl)CCCl)NCCCO1 (stereo not shown) [cyclophosphamide] as the entry.
Result: 228

###

# target.under.test: human POR (Homo sapiens)
# Construct: full-length wild type in pET22b, expressed in E. coli BL21(DE3); bacterial membranes reconstituted in DLPC/DLPG liposomes without further purification, or used as microsomes
# assay.procedure: biochemical
# Design: POR proteoliposome reduction of cytochrome c, MTT (absorbance) or resazurin (fluorescence), normalized to DMSO control
# condition.parameters: read-out: % of control remaining, Cytochrome C=Cytochrome C; Liposomes=Liposomes; electron acceptor as given
outcome.measure: remaining activity at 10 µM (%)
Supply the numeric figure in %, leaving out any unit text.

Worked examples follow.
molecule="CN/C(=N\\CCSCc1nc[nH]c1C)NC#N [Cimetidine]" outcome_measure="remaining activity at 10 µM" measure_unit=% measured_value=110
molecule="CO[C@@]12[C@H](COC(N)=O)C3=C(C(=O)C(C)=C(N)C3=O)N1C[C@@H]1N[C@@H]12 [Mitomycin C]" outcome_measure="remaining activity at 10 µM" measure_unit=% measured_value=101
molecule="CC(C)c1nc(CN(C)C(=O)N[C@H](C(=O)N[C@@H](Cc2ccccc2)C[C@H](O)[C@H](Cc2ccccc2)NC(=O)OCc2cncs2)C(C)C)cs1 [Ritonavir]" outcome_measure="remaining activity at 10 µM" measure_unit=% measured_value=108

Problem: Check the records and state remaining activity at 10 µM for CCCCc1oc2ccccc2c1C(=O)c1cc(I)c(OCCN(CC)CC)c(I)c1 [Amiodarone]
Result: 95.6

Problem: Could you please provide reported remaining activity at 10 µM for CO[C@H]1/C=C/O[C@@]2(C)Oc3c(C)c(O)c4c(O)c(c(/C=N/N5CCN(C)CC5)c(O)c4c3C2=O)NC(=O)/C(C)=C\C=C\[C@H](C)[C@H](O)[C@@H](C)[C@@H](O)[C@@H](C)[C@H](OC(C)=O)[C@@H]1C [rifampicin] ? Thanks!
Result: 113

Problem: Fill in reported remaining activity at 10 µM for this entry: CC(=O)CC(c1ccccc1)c1c(O)c2ccccc2oc1=O (stereo not drawn) [Warfarin]
Result: 102
